assay: chemical genetic growth profiling, strain panel (AID 1159580);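 also: tested at 20 µM; growth read once vehicle control cultures reached saturation at 30 °C; lower values mean less growth of the strain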; details: S. cerevisiae deletion strains, growth OD, locus YBL061C, strain skt5
Among all 5,500 compounds or so, about 2,000 (36%) were called active. Inconclusive results (about 18%) are left out. Rule as the data show it: active = normalized growth mostly below about 0.91 (no sharp cut-off); inconclusive = no clear call, values can overlap the other calls; inactive = mostly above about 0.92. The list shows a part of the results.
Labels: y for active, n for inactive

1. COc1cc2c(cc1OC)[C@@H]1C(=O)c3ccc4oc(C(C)C)cc4c3O[C@@H]1CO2
n
2. CC(NCCc1ccc(O)cc1)C(O)c1ccc(O)cc1 (centres undefined)
n
3. CC1=C(/C=C/C(C)=C/C=C/C(C)=C/C=C/C=C(C)/C=C/C=C(C)/C=C/C2=C(C)C(=O)C(O)CC2(C)C)C(C)(C)CC(O)C1=O (centres undefined)
n
4. NC(=O)C(c1ccccc1)(c1ccccc1)C1CCN(CCc2ccc3c(c2)CCO3)C1 (centres undefined)
n
5. c1cncc(C2CCCCN2)c1 (centres undefined)
n
6. O=C(O)c1cc2ccccc2[nH]1
n
7. CC(=O)NC1SCCC1=O (centres undefined)
n
8. CC(C)(O)[C@@H]1[C@H]2OC(=O)[C@@H]1[C@]1(O)C[C@H]3O[C@]34C(=O)O[C@H]2[C@]14C
n
9. CC(=O)O[C@H]1[C@@H]2[C@@H](OC(=O)Cc3ccccc3)[C@@H](C)C[C@]2(OC(C)=O)C(=O)/C(C)=C/[C@H]2[C@H](CC[C@@]13CO3)C2(C)C
n
10. CC(N)CCCC(C)(C)O (centres undefined)
n
11. CCCCCCCCNC(C)C(O)c1ccc(SC(C)C)cc1 (centres undefined)
y
12. O=C(O)c1c2ccccc2cc2ccccc12
n
13. COc1cc(O)c(C(=O)/C=C/c2ccc(OC)c(O)c2)c(OC)c1
n
14. COc1ccc2c(C)cc(=O)oc2c1
n
15. CNC(C)[C@H](O)c1ccccc1 (some centres undefined)
n
16. COc1cc2c(cc1OC)Cc1cc(OC)c(OC)cc1Cc1cc(OC)c(OC)cc1C2
n
17. CC1=C(C/C=C(\C)CCC[C@H](C)CCC[C@H](C)CCCC(C)C)C(=O)c2ccccc2C1=O
n
18. C=C1C2CC[C@H]3[C@]4(C)C[C@H](OC5OC(CO)C(OS(=O)(=O)O)C(OS(=O)(=O)O)C5OC(=O)CC(C)C)C[C@@H](C(=O)O)[C@H]4CC[C@]3(C2)[C@H]1O (some centres undefined)
n
19. C=Cc1c2[nH]c(c1C)C=c1[nH]c(c(C)c1C=C)=CC1N=C(C=c3[nH]c(c(C)c3CCC(=O)O)=C2)C(CCC(=O)O)=C1C (centres undefined)
n
20. COc1cc2c(cc1OC)[C@@H]1C(=O)c3ccc4c(c3O[C@@H]1CO2)C=CC(C)(C)O4
n
21. CCOC(=O)CCC(=O)O[C@H]1[C@H](O[C@@H]2[C@@H](C)[C@H](O[C@H]3C[C@@](C)(OC)[C@@H](O)[C@H](C)O3)[C@@H](C)C(=O)O[C@H](CC)[C@@](C)(O)[C@H](O)[C@@H](C)C(=O)[C@H](C)C[C@@]2(C)O)O[C@H](C)C[C@@H]1N(C)C
n
22. COc1cc2c(cc1OC)C(=O)OC2
n
23. ClC1=C(Cl)C2(Cl)C3C4C=CC(C4)C3C1(Cl)C2(Cl)Cl (centres undefined)
n
24. COc1cc(/C=C/C(=O)/C=C(O)/C=C/c2ccc(O)c(OC)c2)ccc1O
y
25. O=C(O)C1(O)C[C@@H](O)C(O)[C@H](O)C1 (some centres undefined)
n
26. CC1=C(C(C)O)C2=NC1C=c1[nH]c(c(C)c1C(C)O)=Cc1[nH]c(c(CCC(=O)O)c1C)C=c1[nH]c(c(C)c1CCC(=O)O)=C2 (centres undefined)
n
27. O=C1C=CC(=C(c2ccc(O)cc2)c2ccc(O)cc2)C=C1
n
28. COc1cc(NS(=O)(=O)c2ccc(N)cc2)nc(OC)n1
n
29. CC1=C(CC(=O)O)c2cc(F)ccc2/C1=C\c1ccc(S(C)=O)cc1 (centres undefined)
n
30. COc1ccc2c(c1)OCc1c-2oc2cc(OC)ccc12
y
31. COc1cc2c(cc1OC)[C@@H]1C(=O)c3ccc(OC)c(CC=C(C)C)c3O[C@@H]1CO2
n
32. CC(CCc1ccccc1)NC(C)C(O)c1ccc(O)cc1 (centres undefined)
n
33. O=C(O)c1cc2ccccc2c(Cc2c(O)c(C(=O)O)cc3ccccc23)c1O
n
34. S=c1nc[nH]c2nc[nH]c12
n
35. C=C(C)C1CNC(C(=O)O)C1CC(=O)O (centres undefined)
n
36. CN(C)c1ccc(C(=C2C=CC(=[N+](C)C)C=C2)c2ccc(N(C)C)cc2)cc1
y
37. ClC1=C(Cl)C2(Cl)C3C(Cl)C=CC3C1(Cl)C2(Cl)Cl (centres undefined)
n
38. COC1=C(OC)C(=O)C(C/C=C(\C)CC/C=C(\C)CC/C=C(\C)CC/C=C(/C)CC/C=C(\C)CC/C=C(\C)CC/C=C(\C)CC/C=C(\C)CC/C=C(\C)CCC=C(C)C)=C(C)C1=O
n
39. CCCCCCCCCCCCCCCC[N+](C)(C)C
y
